Data origin: PubChem BioAssay

inhibition values, listed per item
Assay: 384-well plate pilot, post-Golgi transport modulator project, inhibition of yeast transport mutant growth (AID 636)
Conditions: absorbance 615 nm, about 18 h, stronger effect = higher value
The source made the active and inactive calls. Rule as the data show it: active = inhibition above about 31%; inactive = the rest.
attributeMeasured: inhibition

molecule: CCOC(=O)C1CCN(c2c(NCCCN(CC)c3ccccc3)c(=O)c2=O)CC1
result: -1.18% (inactive)

molecule: CCCn1cc(SCC(=O)NCc2ccco2)c2ccccc21
result: -5.47% (inactive)

molecule: Cc1c(C(=O)OC(C)C)[nH]c2c1C(=O)CCC2
result: 0.39% (inactive)

molecule: Cc1cccc(NC(=O)CSc2nnc(-c3cc(C)n(-c4ccccc4)c3C)o2)c1C
result: 0.26% (inactive)

molecule: Cc1cc2c(s1)c1cnn(CC(=O)NCCc3ccccc3)c(=O)c1n2C
result: -5.81% (inactive)

molecule: O=S(=O)(c1ccc(-c2csc(-c3cccnc3)n2)cc1)N1CCCCC1
result: 0% (inactive)

molecule: CCCCc1nccn1CCn1ccnc1CCCC
result: -3.47% (inactive)

molecule: CCSc1nnc(NC(=O)C(CC)(C(F)(F)F)C(F)(F)F)s1
result: 0.41% (inactive)

molecule: c1csc(-c2nc3nc4ccccc4nc3n2Cc2ccc3c(c2)OCO3)c1
result: 10.5% (inactive)

molecule: CCSc1nc2ccccc2n1CC(N)=O
result: -9.04% (inactive)

molecule: Cn1cnnc1SCC(=O)Nc1sc2c(c1C#N)CCCCC2
result: 10.1% (inactive)

molecule: COc1ccccc1-c1noc(-c2cccnc2)n1
result: -2.89% (inactive)

molecule: COc1ccc(CC(=O)OCc2nnc(C3COc4ccccc4O3)o2)cc1OC (stereo not drawn)
result: -2% (inactive)

molecule: Cc1ccc(C(=O)CC2(O)C(=O)N(CN3CCOCC3)c3ccccc32)cc1 (stereo not drawn)
result: -3.55% (inactive)

molecule: CCOc1cc(C(=O)N2CCN=C2SC)cc(OCC)c1OCC
result: -4.73% (inactive)

molecule: CCOC(=O)c1[nH]nc(-c2c(O)cc(C)cc2O)c1-c1csc(C)n1
result: -6.71% (inactive)

molecule: COC(=O)c1nn(-c2ccc(-c3ccccc3)cc2)cc1O
result: -4.27% (inactive)

molecule: COCCCNS(=O)(=O)c1ccc2c(c1)CCN2C(C)=O
result: -0.13% (inactive)

molecule: C=CCn1c2ccccc2c2nnc(SCC(=O)NC(C(=O)OC)C(C)C)nc21 (stereo not drawn)
result: -3.12% (inactive)

molecule: FC(F)Oc1ccc(-c2csc(Cc3nnc4n3CCCCC4)n2)cc1
result: -7.26% (inactive)

molecule: COCCOC(=O)C1=C(C)Nc2ncnn2C1c1ccc(F)cc1 (stereo not drawn)
result: -3.6% (inactive)

molecule: O=C(CSc1nnc2scc(-c3ccccc3)n12)N1CCN(Cc2ccccc2)CC1
result: -5.66% (inactive)

molecule: COc1ccccc1-c1cn[nH]c(=S)n1
result: 1.07% (inactive)

molecule: O=C1c2oc3ccccc3c(=O)c2C(c2ccccn2)N1Cc1ccccc1 (stereo not drawn)
result: 1.07% (inactive)

molecule: CCOC(=O)CNC(=O)CSc1ncnc2c1cnn2Cc1ccccc1
result: -5.84% (inactive)

molecule: CC(C)[C@H](NC(=O)NC1CCCC1)C(=O)O
result: -0.52% (inactive)

molecule: CC(=O)C1=C(O)C(=O)N(Cc2ccco2)C1c1ccc(F)cc1 (stereo not drawn)
result: 1.07% (inactive)

molecule: Cc1cc(O)c(C(C)C)cc1N=C1CSC(=O)N1
result: -2.11% (inactive)

molecule: O=C(OCc1nnc(-c2ccccc2)o1)C1=COCCO1
result: -8.67% (inactive)

molecule: Cc1cc(C)cc(N2CCCn3c2nc2c3c(=O)n(CCN3CCOCC3)c(=O)n2C)c1
result: -7.2% (inactive)

molecule: O=C(CSc1nnc(-c2ccco2)c(-c2ccco2)n1)Nc1ccccc1
result: 2.63% (inactive)

molecule: Cn1c(=N)n(CC(=O)O)c2ccccc21
result: -5.97% (inactive)

molecule: COc1cc(C)c(-c2cc(C(=O)O)c(C)o2)cc1C(C)C
result: -3.87% (inactive)

molecule: Cc1nc2ccccn2c1C(=O)NCCCN1CCOCC1
result: -0.27% (inactive)

molecule: Cc1cc(NC(=O)c2ccc3c(c2)C(=O)N(Cc2cccnc2)C3=O)no1
result: -1.07% (inactive)

molecule: CCOC(=O)CCCn1nc(C)n2c(cc3sccc32)c1=O
result: -5.07% (inactive)

molecule: COc1cccc(N2CCN(Cc3cccnc3)CC2)c1
result: -0.38% (inactive)

molecule: Nc1c(Sc2ccccc2)c(=O)[nH]c(=O)n1Cc1ccccc1
result: -5.14% (inactive)

molecule: CC(=O)c1coc2ccc(OCC(=O)O)cc12
result: -4% (inactive)

molecule: CN=C(Nc1cc(C)nn1-c1ccccc1)c1ccccc1
result: -2% (inactive)

molecule: CCOc1ccc(-c2nnc(N)s2)cc1
result: 0.67% (inactive)

molecule: CCOC(=O)c1c(NC(=O)c2ccn(CC)n2)sc2c1CCCC2
result: -4.74% (inactive)

molecule: O=C(Cn1nc(-c2ccc3c(c2)OCCO3)ccc1=O)Nc1ccc(N2CCOCC2)cc1
result: -3.03% (inactive)

molecule: CCC(=O)Nc1ccc(NC(=O)c2cccc(OC)c2)nc1
result: 0.14% (inactive)

molecule: O=C(OCC(=O)N1CCCC1)c1cncc(Br)c1
result: -7.57% (inactive)

molecule: CCOc1ccc(-n2cc(C(=O)N3CCN(C)CC3)c3cc(OC)c(OC)cc3c2=O)cc1
result: 1.62% (inactive)

molecule: CCC(C)c1ccc(NC(=O)c2cccnc2)cc1 (stereo not drawn)
result: -0.54% (inactive)

molecule: O=C(CSc1nnc(-c2cccs2)o1)N1CCOCC1
result: -3.6% (inactive)
